# test_protocol: Study M04-710 pharmacokinetics, multiple-dose escalation, non-hematologic malignancies
# Format: in vivo, human
# reported_conditions: human, plasma, oral, 0.1 mg/kg; Study Day 1; 0.10 mg/kg; mean ± SD
measured_attribute: AUC(0-inf)

input: Value lookup for AUC(0-inf); key = Cc1ccc(F)c(NC(=O)Nc2ccc(-c3cccc4[nH]nc(N)c34)cc2)c1
output: 3100 ng·h/mL

----------
# test_protocol: Study M04-710 pharmacokinetics, multiple-dose escalation, non-hematologic malignancies
# Assay type: in vivo, human
# reported_conditions: human, plasma, oral, 0.1 mg/kg, Study Day 15; 0.10 mg/kg; mean ± SD
measured_attribute: Tmax (h)
Report only the number, with the unit h understood.

input: Value lookup for Tmax; key = Cc1ccc(F)c(NC(=O)Nc2ccc(-c3cccc4[nH]nc(N)c34)cc2)c1 [ABT-869]
output: 3.7

----------
# test_protocol: Study M04-710 pharmacokinetics, multiple-dose escalation, non-hematologic malignancies
# Format: in vivo, human
# reported_conditions: human, plasma, oral, 0.1 mg/kg; Study Day 1; 0.10 mg/kg; mean ± SD
measured_attribute: clearance
# output: number + unit

input: Value lookup for clearance; key = Cc1ccc(F)c(NC(=O)Nc2ccc(-c3cccc4[nH]nc(N)c34)cc2)c1
output: 38.3 mL/min

----------
# test_protocol: PK comparison across studies M04-710 and M05-756 (race, cancer type)
# Assay type: in vivo, human
# reported_conditions: human, plasma, oral, Asian population, N 37; adjusted mean (% CV); read-out: T1/2 (converted)
measured_attribute: half-life (h)
Report only the number, with the unit h understood.

input: Value lookup for half-life; key = Cc1ccc(F)c(NC(=O)Nc2ccc(-c3cccc4[nH]nc(N)c34)cc2)c1
output: 18.4

----------
# test_protocol: Study M04-710 pharmacokinetics, multiple-dose escalation, non-hematologic malignancies
# Assay type: in vivo, human
# reported_conditions: human, plasma, oral, 0.3 mg/kg, Study Day 15; 0.30 mg/kg; mean ± SD
# Experimental: In study M04-710, blood samples for pharmacokinetic analysis were collected on Days 1 and 15 at the following times: 0 (pre-dose), 0.5, 1, 2, 3, 4, 6, 8, and 24 h (Day 1 only). In study M05-756, blood samples for pharmacokinetic analysis were collected on Days 1 and 8 at the following times: 0 (pre-dose), 0.5, 1, 2, 3, 4, 6, 8, and 24 h (Day 1 only). […] Plasma and urine concentrations of ABT-869 were determined under the supervision of the Drug Analysis Department at Abbott using LCMS/MS. […]
measured_attribute: Cmax (ng/mL)
Report only the number, with the unit ng/mL understood.

input: Value lookup for Cmax; key = Cc1ccc(F)c(NC(=O)Nc2ccc(-c3cccc4[nH]nc(N)c34)cc2)c1 [ABT-869]
output: 390

----------
# test_protocol: Study M04-710 pharmacokinetics, multiple-dose escalation, non-hematologic malignancies
# Format: in vivo, human
# reported_conditions: human, plasma, oral; Study Day 1; 0.25 mg/kg; mean ± SD
measured_attribute: AUC(0-inf) (ng·h/mL)
Report only the number, with the unit ng·h/mL understood.

input: Value lookup for AUC(0-inf); key = Cc1ccc(F)c(NC(=O)Nc2ccc(-c3cccc4[nH]nc(N)c34)cc2)c1
output: 5800

----------
# test_protocol: Study M04-710 pharmacokinetics, multiple-dose escalation, non-hematologic malignancies
# Format: in vivo, human
# reported_conditions: human, plasma, oral, 0.3 mg/kg; Study Day 1; 0.30 mg/kg; mean ± SD
measured_attribute: half-life (h)
Report only the number, with the unit h understood.

input: Value lookup for half-life; key = Cc1ccc(F)c(NC(=O)Nc2ccc(-c3cccc4[nH]nc(N)c34)cc2)c1
output: 22

----------
# test_protocol: Study M04-710 pharmacokinetics, multiple-dose escalation, non-hematologic malignancies
# Format: in vivo, human
# reported_conditions: human, plasma, oral, 0.25 mg/kg, Study Day 15; 0.25 mg/kg; mean ± SD
measured_attribute: Tmax (h)
Report only the number, with the unit h understood.

input: Value lookup for Tmax; key = Cc1ccc(F)c(NC(=O)Nc2ccc(-c3cccc4[nH]nc(N)c34)cc2)c1
output: 3.5

----------
# test_protocol: Study M04-710 pharmacokinetics, multiple-dose escalation, non-hematologic malignancies
# Assay type: in vivo, human
# reported_conditions: human, plasma, oral, 0.25 mg/kg, Study Day 1; 0.25 mg/kg; mean ± SD
measured_attribute: Cmax (ng/mL)
Report only the number, with the unit ng/mL understood.

input: Value lookup for Cmax; key = Cc1ccc(F)c(NC(=O)Nc2ccc(-c3cccc4[nH]nc(N)c34)cc2)c1 [ABT-869]
output: 260

----------
# test_protocol: Study M04-710 pharmacokinetics, multiple-dose escalation, non-hematologic malignancies
# Type: in vivo, human
# reported_conditions: human, plasma, oral, 0.3 mg/kg; Study Day 1; 0.30 mg/kg; mean ± SD
measured_attribute: clearance (mL/min)
Report only the number, with the unit mL/min understood.

input: Value lookup for clearance; key = Cc1ccc(F)c(NC(=O)Nc2ccc(-c3cccc4[nH]nc(N)c34)cc2)c1
output: 40

----------
# test_protocol: Study M04-710 pharmacokinetics, multiple-dose escalation, non-hematologic malignancies
# Format: in vivo, human
# reported_conditions: human, plasma, oral, 0.1 mg/kg; Study Day 1; 0.10 mg/kg; mean ± SD
measured_attribute: half-life (min)
Report only the number, with the unit min understood.

input: Value lookup for half-life; key = Cc1ccc(F)c(NC(=O)Nc2ccc(-c3cccc4[nH]nc(N)c34)cc2)c1 [ABT-869]
output: 1140

----------
# test_protocol: Study M04-710 pharmacokinetics, multiple-dose escalation, non-hematologic malignancies
# Format: in vivo, human
# reported_conditions: human, plasma, oral, 10 mg, Study Day 15; 10 mg (~0.20 mg/kg); mean ± SD
measured_attribute: Cmax (ng/mL)
Report only the number, with the unit ng/mL understood.

input: Value lookup for Cmax; key = Cc1ccc(F)c(NC(=O)Nc2ccc(-c3cccc4[nH]nc(N)c34)cc2)c1
output: 220

----------
# test_protocol: Study M04-710 pharmacokinetics, multiple-dose escalation, non-hematologic malignancies
# Format: in vivo, human
# reported_conditions: human, plasma, oral; Study Day 15; 0.25 mg/kg; mean ± SD; read-out: AUC0-24
measured_attribute: AUC(0-t) (ng·h/mL)
Report only the number, with the unit ng·h/mL understood.

input: Value lookup for AUC(0-t); key = Cc1ccc(F)c(NC(=O)Nc2ccc(-c3cccc4[nH]nc(N)c34)cc2)c1 [ABT-869]
output: 4300
